Origin of measurements: patent US8916599B2

biological target: recombinant human mPGES-1 (Homo sapiens, UniProt O14684); construct: made in house; host or cells: Rosetta E. coli (microsomal/membrane fraction); experiment: mPGES-1 inhibition test (microsomes, PGH2 substrate, HTRF detection of PGE2); assay type: biochemical; details: inhibition of mPGES-1 at 10 μM
Sequence (O14684 whole entry): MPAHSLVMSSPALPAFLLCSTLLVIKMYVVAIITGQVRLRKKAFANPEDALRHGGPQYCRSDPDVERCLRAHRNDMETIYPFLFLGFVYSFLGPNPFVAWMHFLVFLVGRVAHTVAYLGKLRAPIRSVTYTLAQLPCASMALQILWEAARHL
Field: inhibition at 10 µM. Provide a value for each of the compounds that follow.
One number for each entry, in %.

Below, each entry is followed by its recorded inhibition at 10 µM result.
molecular_string=O=C(N[C@H]1CC[C@H](C(F)(F)F)CC1)c1cc2nc(Nc3c(Cl)cccc3Cl)[nH]c2cc1OCC(F)(F)F assayed_system="recombinant human mPGES-1 (Homo sapiens, UniProt O14684)" result_units=% obs_value=100
molecular_string=Cn1c(Nc2c(Cl)ccc(Cl)c2F)nc2cc(C(=O)N[C@H]3CC[C@H](C(F)(F)F)CC3)c(F)cc21 assayed_system="recombinant human mPGES-1 (Homo sapiens, UniProt O14684)" result_units=% obs_value=92
molecular_string=O=C(Nc1ccc(Br)cc1)c1ccc2[nH]c(Nc3c(F)cccc3Cl)nc2c1 assayed_system="recombinant human mPGES-1 (Homo sapiens, UniProt O14684)" result_units=% obs_value=100

Shift focus to the following entry.
### Prompt Return value of inhibition at 10 µM for input O=C(Nc1ccc(Cl)c(Cl)c1Cl)c1ccc2[nH]c(Nc3c(Cl)cccc3Cl)nc2c1 , no commentary.
### Response 100
